Test system: HalhaPK-R1b
EXPERIMENT_NOTES: Concentration-response, calcium mobilization (FLIPR Calcium 6) in Sf9 cells expressing HalhaPK-R1b
Assay type: cell-based, Halyomorpha halys
STUDY_CONDITIONS: HalhaPK-R1b in Sf9 cells, intracellular calcium, FLIPR Calcium 6 fluorescence, at least three independent experiments; read-out: Half-maximum effective concentration (EC50)
Experimental: Five micrograms of each purified pIB/HalhaPK-R (or CAPA-R) plasmid and 15 μL of Cellfectin II reagent (Thermo Fisher Scientific) were diluted into 500 μL of serum free Insectagro Sf9 medium (Corning, Corning, NY, United States) and allowed to incubate for 10 min at room temperature, after which they were mixed together and allowed to incubate for an additional 15–20 min. […]
Where no end group is shown, it is not given here.
MEASUREMENT_LABEL: pEC50
FYI, pEC50 means -log10 of a concentration in mol per litre.

Request: Give pEC50 (HalhaPK-R1b) of the following substance: FYAPFSPRL-NH2 [PBAN/PK2]
Result: 6.38
